inhibition at 10 µM reference
System: A549 (lung adenocarcinoma)
Test: Antiproliferative activity (CCK-8 cell viability), A549
Assay type: cell-based
Conditions: Homo sapiens, Compound concentration: 10 μM, 72 h, read-out: Antiproliferative activity in cancerous cells, A549 (inhibition of cell growth)
RECORDED METRIC: inhibition at 10 µM

> print(dat)
                                    compound  reported.result
 1  CCc1ccc2c(c1)C(CC(=O)O)=C(C)/C2=C/c1ccc(COCc2ccc(Cl)cc2)cc1 [B122]            ≥ 50%
 2  CC1=C(CC(=O)O)c2cc(F)ccc2/C1=C\c1cccc(COc2cccc(C(C)(C)C)c2)c1 [B21]            ≥ 50%
 3  COc1ccc2c(c1)/C(=C\c1cccc(COc3ccc(F)cc3)c1)C(C)=C2CC(=O)O [B22]            < 30%
 4  COc1ccc2c(c1)/C(=C\c1ccc(Oc3ccc(F)cc3)cc1)C=C2CC(=O)O [C2]            < 30%
 5  CC1=C(CC(=O)O)c2cc(F)ccc2/C1=C\c1cccc(C(F)(F)c2ccccc2)c1 [C301]            < 30%
 6  O=C(O)CC1=C(C2CCc3ccc(F)cc32)/C(=C/c2ccc(Oc3ccc(F)cc3)cc2)c2ccc(F)cc21 (centres unmarked) [C12]            ≥ 50%
 7  CC1=C(CC(=O)O)c2cc(F)cc(F)c2/C1=C/c1ccc(COc2ccccc2)cc1 [E2]        30 to 50%
 8  CC1=C(CC(=O)O)c2cc(F)ccc2/C1=C\c1ccc(OC2CCNCC2)cc1 [C202]            < 30%
 9  CC1=C(CC(=O)O)c2cc(F)ccc2/C1=C\c1ccc(Sc2nc3ccccc3[nH]2)cc1 [C36]            < 30%
10  CC1=C(CC(=O)O)c2cc(Br)ccc2/C1=C\c1cccc(Oc2ccc(Cl)cc2)c1 [C108]            ≥ 50%
11  O=C(O)CC1=C(Cc2ccc(Oc3ccc(F)cc3)cc2)/C(=C/c2ccc(Oc3ccc(F)cc3)cc2)c2ccc(F)cc21 [A107]            ≥ 50%
12  CC1=C(CC(=O)O)c2cc(C)ccc2/C1=C\c1ccc(Oc2ccc(F)cc2)cc1 [C4]        30 to 50%
13  CC1=C(CC(=O)O)c2cc(F)ccc2/C1=C/c1ccc(Oc2ccc(F)cc2Cl)cc1 [E25]            < 30%
14  CC1=C(CC(=O)O)c2cccc(F)c2/C1=C\c1cccc(COc2ccccc2)c1 [B9]        30 to 50%
15  CC1=C(CC(=O)O)c2cc(Cl)ccc2/C1=C\c1ccc(COCc2ccc(Cl)cc2)cc1 [B115]            ≥ 50%
16  CC1=C(CC(=O)O)c2cc(F)ccc2/C1=C\c1ccc(Oc2ccc(Cl)cc2)cc1O [C80]            ≥ 50%
17  CC1=C(CC(=O)O)c2cc(F)ccc2/C1=C\c1ccc(COCc2ccc(F)c(Cl)c2)cc1 [B106]            ≥ 50%

----------
inhibition at 30 µM reference
Tested on: A549 (lung adenocarcinoma)
Assay: Antiproliferative activity (CCK-8 cell viability), A549
Assay type: cell-based
Conditions: Homo sapiens, Compound concentration: 30 μM, 72 h, read-out: Antiproliferative activity in cancerous cells, A549
RECORDED METRIC: inhibition at 30 µM

> print(dat)
                                chem.smiles  reported.result
1  CC1=C(CC(=O)O)c2cc(F)ccc2/C1=C\c1ccc(Sc2nc3ccccc3[nH]2)cc1        30 to 50%
2  CC1=C(CC(=O)O)c2cccc(F)c2/C1=C\c1cccc(COc2ccccc2)c1        30 to 50%
3  CC1=C(CCOC(=O)n2ccnc2)c2cc(F)ccc2/C1=C\c1ccc(Oc2ccc(F)cc2)cc1        30 to 50%
4  CC1=C(CC(=O)O)c2ccc(F)cc2/C1=C\c1ccc(COc2ccccc2)cc1        30 to 50%
5  CC1=C(CCOC(=O)N(C)N)c2cc(F)ccc2/C1=C\c1ccc(Oc2ccc(F)cc2)cc1        30 to 50%
6  CC1=C(CC(=O)O)c2c(F)cccc2/C1=C\c1ccc(Oc2ccc(F)cc2)cc1            < 30%
7  O=C(O)CC1=C/C(=C/c2cccc(Oc3ccccc3)c2)c2cc(OCC(F)(F)F)ccc21            < 30%
8  CC1=C(CC(=O)O)c2cc(Br)ccc2/C1=C\c1ccc(Oc2ccc(F)cc2)cc1            < 30%
9  O=C(O)CC1=C/C(=C/c2ccc(COc3ccccc3)cc2)c2ccc(F)cc21        30 to 50%

Data credit: patent US20260184663A1
